- System: NCI-H522 lung
- method-description: NCI-60 one-dose screen, 48 h (100 = growth as untreated, 0 = no growth, -100 = all killed)
- conditions: 10 µM unless noted
This is part of a sample that, as a whole, favours compounds with a hit. Of some 83,000 tested, about 20% had one in any assay.
readout-kind: growth (%)
Answer with a number only, understood to be in %.

Answered cases to consult:
CC12OC(CC(O)C1O)n1c3ccccc3c3c4c(c5c6ccccc6n2c5c31)C(=O)N(CCN1CCOCC1)C4=O (centres undefined) ... -16.3
COc1ccc(C/C(C)=C(\c2ccc(O)cc2)c2ccc(OCCCN(C)C)cc2)cc1 ... 91.5
Cc1n(Cc2ccc3ccccc3c2)c(Cl)c(Cl)[n+]1Cc1ccc2ccccc2c1 ... 16.9
COc1cc(/C=N/NC(=O)CCN2c3ccccc3Sc3ccccc32)cc(OC)c1OC ... 70.3
Cc1ccc(NC(=O)N/C(N)=N/c2nc(=O)c3ccccc3s2)cc1 ... 95.3

-- ask growth lookup needed for CCCCC(NC(=O)CN1C(=O)/C(=C/C(C)=C/c2ccccc2)SC1=S)C(=O)O (centres undefined) , thanks.
-- reply 93.8

-- ask growth lookup needed for CCOC(=O)c1cc2c(n1Cc1cc(OC)cc(OC)c1Br)-c1nc(NC(C)=O)sc1CCC2 , thanks.
-- reply 53.5

-- ask growth lookup needed for NC(N)=NC(N)=NCCCc1ccco1 , thanks.
-- reply 93.6

----------
- Tested on: HOP-92 NSCLC
- method-description: NCI-60 one-dose screen, 48 h (100 = growth as untreated, 0 = no growth, -100 = all killed)
- conditions: 10 µM unless noted
About 83,000 compounds went through this panel and 20% of them were active in at least one assay; those are over-represented in the sample as a whole. The source made the active and inactive calls. Rule for the calls: active = growth percent below 10; inactive = the rest.
readout-kind: growth

CCCCC1COc2cccc3c2N1C=C/C3=C\C(=O)N(C)c1cccc(Cl)c1 (stereo unspecified) ... 92% (inactive)
O=C1Nc2ccccc2/C1=C/c1cccn1CCCCCn1c2ccccc2c(=O)c2ccccc21 ... 65.5% (inactive)
COc1ccc(/C(C)=C(\c2ccc(OCCN3CCCCCC3)cc2)c2ccc(OC(=O)C3CCCCC3)cc2)cc1 ... -88.9% (active)
O=C1C(N2CCOCC2)=C(I)C(=O)c2ncccc21 ... 123% (inactive)
CCNC(=O)Nc1ncccc1OCc1ccc(F)cc1 ... 108% (inactive)
C=C1C(=O)O[C@H]2[C@H]1CC/C(CNS(=O)(=O)c1ccc3ccccc3c1)=C\CC[C@@]1(C)O[C@@H]21 ... -29.6% (active)
COc1ccc(/C=N/NC(=O)CN2CCN(c3cc4c(cc3F)c(=O)c(C(=O)O)cn4C3CC3)CC2)cc1O ... 91.8% (inactive)
COc1ccccc1/C=C1\COc2ccc(O)cc2C1=O ... 103% (inactive)

-- ask growth lookup needed for COc1ccc2c(c1)c(-c1nc(-c3c[nH]c4c(Cl)nccc34)cs1)cn2C , thanks.
-- reply 76.1% (inactive)

-- ask growth lookup needed for Nc1n[nH]c2cccc(C#Cc3cccc(C(=O)Nc4ccc(CN5CCOCC5)c(C(F)(F)F)c4)c3)c12 , thanks.
-- reply 35.5% (inactive)

-- ask growth lookup needed for O=C(Nc1ccc2ccccc2c1)c1cc2ccccc2cc1O , thanks.
-- reply 63.7% (inactive)
